# relative viability values compiled below
Tested on: NCI-H1437
Experiment: relative viability (nuclei count vs DMSO), 5 days (fraction); higher = more cells survive
Settings: first compound 0.005 µM
Give the value as a plain number.

The cases that follow already have their relative viability on record.
Nc1ccn([C@@H]2O[C@H](CO)[C@@H](O)[C@@H]2O)c(=O)n1 [Cytarabine] + O=C(CCCCCCC(=O)Nc1ccccc1)NO [Vorinostat] (partner 1 µM) = 0.889
Nc1ccn([C@@H]2O[C@H](CO)[C@@H](O)[C@@H]2O)c(=O)n1 [Cytarabine] + NC(=O)Nc1cc(-c2cccc(F)c2)sc1C(=O)N[C@H]1CCCNC1 [AZD7762] (partner 0.2 µM) = 1.04
Nc1ccn([C@@H]2O[C@H](CO)[C@@H](O)[C@@H]2O)c(=O)n1 [Cytarabine] + Cc1nc(Nc2ncc(C(=O)Nc3c(C)cccc3Cl)s2)cc(N2CCN(CCO)CC2)n1 [Dasatinib] (partner 0.075 µM) = 0.395
COc1cc2nccc(Oc3ccc(NC(=O)Nc4cc(C)on4)c(Cl)c3)c2cc1OC [Tivozanib] + Cc1nc(Nc2ncc(C(=O)Nc3c(C)cccc3Cl)s2)cc(N2CCN(CCO)CC2)n1 [Dasatinib] (partner 0.075 µM) = 0.292
COc1cc2nccc(Oc3ccc(NC(=O)Nc4cc(C)on4)c(Cl)c3)c2cc1OC [Tivozanib] + Cc1nc(NC(=O)N2CCC[C@H]2C(N)=O)sc1-c1ccnc(C(C)(C)C(F)(F)F)c1 [Alpelisib] (partner 2 µM) = 1.02
COc1cc2nccc(Oc3ccc(NC(=O)Nc4cc(C)on4)c(Cl)c3)c2cc1OC [Tivozanib] + C[C@]1(O)C[C@@H](c2nc(-c3ccc4ccc(-c5ccccc5)nc4c3)c3c(N)nccn32)C1 [Linsitinib] (partner 1 µM) = 1.02

// field: relative viability; key: COc1cc2nccc(Oc3ccc(NC(=O)Nc4cc(C)on4)c(Cl)c3)c2cc1OC [Tivozanib] + COc1cc2c(Oc3ccc(NC(=O)C4(C(=O)Nc5ccc(F)cc5)CC4)cc3F)ccnc2cc1OCCCN1CCOCC1 [Foretinib] (partner 0.25 µM) ; value = 1.1

For this molecule ( COc1cc2nccc(Oc3ccc(NC(=O)Nc4cc(C)on4)c(Cl)c3)c2cc1OC [Tivozanib] + CS(=O)(=O)N1CCN(Cc2cc3nc(-c4cccc5[nH]ncc45)nc(N4CCOCC4)c3s2)CC1 [Pictilisib] (partner 1 µM) ), measured relative viability is 0.347

Recorded relative viability (molecule COc1cc2nccc(Oc3ccc(NC(=O)Nc4cc(C)on4)c(Cl)c3)c2cc1OC [Tivozanib] + C[C@@H](Oc1cc(-c2cnn(C3CCNCC3)c2)cnc1N)c1c(Cl)ccc(F)c1Cl [Crizotinib] (partner 1 µM) ): 0.899

---

Entries and their relative viability values follow.
System: UMC-11
Experiment: relative viability (nuclei count vs DMSO), 5 days (fraction); higher = more cells survive
Details: first compound 8 µM
Answer field: number only, no words.

O=c1[nH]c2ccccc2n1C1CCN(CCCC(c2ccc(F)cc2)c2ccc(F)cc2)CC1 [Pimozide] + Cc1cc(Nc2cc(N3CCN(C)CC3)nc(Sc3ccc(NC(=O)C4CC4)cc3)n2)n[nH]1 [Tozasertib] (partner 0.1 µM) = 0.205
O=c1[nH]c2ccccc2n1C1CCN(CCCC(c2ccc(F)cc2)c2ccc(F)cc2)CC1 [Pimozide] + CC1(C)CCC(c2ccc(Cl)cc2)=C(CN2CCN(c3ccc(C(=O)NS(=O)(=O)c4ccc(N[C@H](CCN5CCOCC5)CSc5ccccc5)c(S(=O)(=O)C(F)(F)F)c4)cc3)CC2)C1 [Navitoclax] (partner 0.5 µM) = 0.239
O=c1[nH]c2ccccc2n1C1CCN(CCCC(c2ccc(F)cc2)c2ccc(F)cc2)CC1 [Pimozide] + C[C@]1(O)C[C@@H](c2nc(-c3ccc4ccc(-c5ccccc5)nc4c3)c3c(N)nccn32)C1 [Linsitinib] (partner 1 µM) = 1.09

The measured relative viability associated with O=c1[nH]c2ccccc2n1C1CCN(CCCC(c2ccc(F)cc2)c2ccc(F)cc2)CC1 [Pimozide] + N=C(N)NC(=N)NCCc1ccccc1 [Phenformin] (partner 250 µM) reads 0.245

The recorded relative viability for entry O=c1[nH]c2ccccc2n1C1CCN(CCCC(c2ccc(F)cc2)c2ccc(F)cc2)CC1 [Pimozide] + CC(C)C[C@H](NC(=O)[C@H](Cc1ccccc1)NC(=O)c1cnccn1)B(O)O [Bortezomib] (partner 0.002 µM) equals 0.52

Note to self: relative viability recorded for O=c1[nH]c2ccccc2n1C1CCN(CCCC(c2ccc(F)cc2)c2ccc(F)cc2)CC1 [Pimozide] + C[C@@H](Oc1cc(-c2cnn(C3CCNCC3)c2)cnc1N)c1c(Cl)ccc(F)c1Cl [Crizotinib] (partner 1 µM) was 0.705

---

System: IA-LM
Assay: relative viability (nuclei count vs DMSO), 5 days (fraction); higher = more cells survive
Conditions: first compound 0.02 µM
Assay Metric: relative viability
The response must contain the number and no unit.

Consider the following illustrative entries.
CC(=O)O[C@@]12CO[C@@H]1C[C@H](O)[C@@]1(C)C(=O)[C@H](O)C3=C(C)[C@@H](OC(=O)[C@H](O)[C@@H](NC(=O)OC(C)(C)C)c4ccccc4)C[C@@](O)([C@@H](OC(=O)c4ccccc4)[C@H]21)C3(C)C [Docetaxel] + O=C(c1cc(Cc2n[nH]c(=O)c3ccccc23)ccc1F)N1CCN(C(=O)C2CC2)CC1 [Olaparib] (partner 8 µM) = 0.074
CC(=O)O[C@@]12CO[C@@H]1C[C@H](O)[C@@]1(C)C(=O)[C@H](O)C3=C(C)[C@@H](OC(=O)[C@H](O)[C@@H](NC(=O)OC(C)(C)C)c4ccccc4)C[C@@](O)([C@@H](OC(=O)c4ccccc4)[C@H]21)C3(C)C [Docetaxel] + Cc1nc(NC(=O)N2CCC[C@H]2C(N)=O)sc1-c1ccnc(C(C)(C)C(F)(F)F)c1 [Alpelisib] (partner 2 µM) = 0.0716

relative viability measured on CC(=O)O[C@@]12CO[C@@H]1C[C@H](O)[C@@]1(C)C(=O)[C@H](O)C3=C(C)[C@@H](OC(=O)[C@H](O)[C@@H](NC(=O)OC(C)(C)C)c4ccccc4)C[C@@](O)([C@@H](OC(=O)c4ccccc4)[C@H]21)C3(C)C [Docetaxel] + CS(=O)(=O)N1CCN(Cc2cc3nc(-c4cccc5[nH]ncc45)nc(N4CCOCC4)c3s2)CC1 [Pictilisib] (partner 1 µM) = 0.064

Field relative viability (entry CC(=O)O[C@@]12CO[C@@H]1C[C@H](O)[C@@]1(C)C(=O)[C@H](O)C3=C(C)[C@@H](OC(=O)[C@H](O)[C@@H](NC(=O)OC(C)(C)C)c4ccccc4)C[C@@](O)([C@@H](OC(=O)c4ccccc4)[C@H]21)C3(C)C [Docetaxel] + O=C(CCCCCCC(=O)Nc1ccccc1)NO [Vorinostat] (partner 1 µM) ) reads 0.0566

---

System: NCI-H1437
Assay: relative viability (nuclei count vs DMSO), 5 days (fraction); higher = more cells survive
Settings: first compound 50 µM
Listing of entries alongside the reported relative viability.
// no unit string in output, number only

Worked examples follow.
O=C(O)CCCCC(CCSCc1ccccc1)SCc1ccccc1 (centres undefined) [CPI-613] + Cc1nc(Nc2ncc(C(=O)Nc3c(C)cccc3Cl)s2)cc(N2CCN(CCO)CC2)n1 [Dasatinib] (partner 0.075 µM) = 0.381
O=C(O)CCCCC(CCSCc1ccccc1)SCc1ccccc1 (centres undefined) [CPI-613] + O=C(c1cc(Cc2n[nH]c(=O)c3ccccc23)ccc1F)N1CCN(C(=O)C2CC2)CC1 [Olaparib] (partner 8 µM) = 0.508
O=C(O)CCCCC(CCSCc1ccccc1)SCc1ccccc1 (centres undefined) [CPI-613] + O=C(CCCCCCC(=O)Nc1ccccc1)NO [Vorinostat] (partner 1 µM) = 0.689

Entry O=C(O)CCCCC(CCSCc1ccccc1)SCc1ccccc1 (centres undefined) [CPI-613] + CC(C)C[C@H](NC(=O)[C@H](Cc1ccccc1)NC(=O)c1cnccn1)B(O)O [Bortezomib] (partner 0.002 µM) — recorded relative viability = 0.493

---

Test system: A549
Assay: relative viability (nuclei count vs DMSO), 5 days (fraction); higher = more cells survive
Conditions: first compound 50 µM
Assay Metric: relative viability
Enter a number only.

For orientation, consider the following solved cases.
O=C(O)CCCCC(CCSCc1ccccc1)SCc1ccccc1 (centres undefined) [CPI-613] + C[C@@H](Oc1cc(-c2cnn(C3CCNCC3)c2)cnc1N)c1c(Cl)ccc(F)c1Cl [Crizotinib] (partner 1 µM) = 0.526
O=C(O)CCCCC(CCSCc1ccccc1)SCc1ccccc1 (centres undefined) [CPI-613] + CS(=O)(=O)CCNCc1ccc(-c2ccc3ncnc(Nc4ccc(OCc5cccc(F)c5)c(Cl)c4)c3c2)o1 [Lapatinib] (partner 2 µM) = 0.787
O=C(O)CCCCC(CCSCc1ccccc1)SCc1ccccc1 (centres undefined) [CPI-613] + Cc1nc(NC(=O)N2CCC[C@H]2C(N)=O)sc1-c1ccnc(C(C)(C)C(F)(F)F)c1 [Alpelisib] (partner 2 µM) = 0.69

Input O=C(O)CCCCC(CCSCc1ccccc1)SCc1ccccc1 (centres undefined) [CPI-613] + C[C@]1(O)C[C@@H](c2nc(-c3ccc4ccc(-c5ccccc5)nc4c3)c3c(N)nccn32)C1 [Linsitinib] (partner 1 µM) . Output relative viability: 0.588
